Target: pooled human IgG (human IgG1, 2, 3 and 4)
MEASURED ATTRIBUTE: Enzyme Activity Endpoint Assay: Fc (ng/µL)
Number only, in ng/µL; omit the unit.

Prompt: Give its Enzyme Activity Endpoint Assay: Fc value. Item: PRT-573 (protein) MANQEIRYSEETPSTITSVWTKGVTPPTQFIQNEDVLHAPYIANQGWYDITKTFNGKDDLLCGAATAGNMLHWWFDQNKEQIENYLKKHPEKQKINFNGEQMFDVKEAIDTKDSQTDSALFSYFKDKAFPYLSTKHLGVFPDHVIDMFINGYRLSLTNHGPTPVKRQTKDPRGGIFDAVFTRGDQSKLLTSRHDFKEKTLNEISQLIKQELTEGKALGLSHTYANVRINHVINLWGADFNAEGNLEAIYVTDSDSNASIGMKKYYVGVNSAGKVAISAKEIEGDNIGAQVLGLFTLSTGQDIWQQTNLEHHHHHH
Response: 409
